# assay text: clinical
# Type: in vivo, human
# condition info: human, plasma, po, 80 mg; read-out: mean t 1/2 (converted)
readout kind: half-life (h)
Express your answer in h, writing the number without its unit.

Prompt: State its half-life for this compound: O=C(/C=C\n1cnc(-c2cc(C(F)(F)F)cc(C(F)(F)F)c2)n1)NNc1cnccn1 [selinexor, Selinexor]
Completion: 6

====

# assay text: clinical
# Type: in vivo, human
# condition info: human, plasma, po, 80 mg; read-out: mean C max
# Experimental: Response assessment was performed every 28 days on day 1 of each cycle. Adverse event (AE) was assessed using the NCI Common Terminology Criteria for Adverse Events (CTCAE) version 4.03. […] Plasma concentrations were determined at the following distinct time points: pre-dose, 0.5 h, 1 h, 1.5 h, 2 h, 3 h, 4 h, 5 h, 6 h, 8 h, 10 h, 24 h, and 48 h. […] PK parameters were obtained by analyzing adequate plasma drug concentration data and calculated using the NCA model with Phoenix WinNonlin v8.3.1. […]
readout kind: Cmax (ng/mL)
Express your answer in ng/mL, writing the number without its unit.

Prompt: State its Cmax for this compound: O=C(/C=C\n1cnc(-c2cc(C(F)(F)F)cc(C(F)(F)F)c2)n1)NNc1cnccn1 [selinexor, Selinexor]
Completion: 862

Measured values drawn from paper PMC8981703 for this set.
